Each entry below carries its reported pIC50.
target: human c-Kit (Thr544-Val976) (Homo sapiens, UniProt P10721)
Sequence (P10721 544-976): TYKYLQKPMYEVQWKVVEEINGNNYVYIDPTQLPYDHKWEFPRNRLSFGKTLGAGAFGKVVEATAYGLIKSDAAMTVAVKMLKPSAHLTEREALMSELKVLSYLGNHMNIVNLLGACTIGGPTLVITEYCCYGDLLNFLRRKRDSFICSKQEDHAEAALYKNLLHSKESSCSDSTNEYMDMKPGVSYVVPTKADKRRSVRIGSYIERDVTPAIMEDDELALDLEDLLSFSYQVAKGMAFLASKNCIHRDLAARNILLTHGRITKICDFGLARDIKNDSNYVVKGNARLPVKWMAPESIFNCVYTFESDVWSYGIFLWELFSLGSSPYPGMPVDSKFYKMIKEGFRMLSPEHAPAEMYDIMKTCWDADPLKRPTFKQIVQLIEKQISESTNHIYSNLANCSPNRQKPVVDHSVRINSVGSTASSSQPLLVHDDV
pIC50: −log10 of the molar value.

Completed entries (count: 2):
Cc1nc(NCCCCCCC(=O)NO)cc(Nc2ncc(C(=O)Nc3c(C)cccc3Cl)s2)n1 | > 7.00
Cc1nc(NCCNCCCCCC(=O)NO)cc(Nc2ncc(C(=O)Nc3c(C)cccc3Cl)s2)n1 | > 7.00

Switching to the query record.
[in] Tell me reported pIC50 for Cc1nc(Nc2ncc(C(=O)Nc3c(C)cccc3Cl)s2)cc(N2CCN(CCCCCCC(=O)NO)CC2)n1 , tested with human c-Kit (Thr544-Val976) (Homo sapiens, UniProt P10721).
[out] > 7.00

====

In what follows, each item is paired with its IC50 for UniProtKB P06239.
Sequence (P06239 whole entry, species assumed): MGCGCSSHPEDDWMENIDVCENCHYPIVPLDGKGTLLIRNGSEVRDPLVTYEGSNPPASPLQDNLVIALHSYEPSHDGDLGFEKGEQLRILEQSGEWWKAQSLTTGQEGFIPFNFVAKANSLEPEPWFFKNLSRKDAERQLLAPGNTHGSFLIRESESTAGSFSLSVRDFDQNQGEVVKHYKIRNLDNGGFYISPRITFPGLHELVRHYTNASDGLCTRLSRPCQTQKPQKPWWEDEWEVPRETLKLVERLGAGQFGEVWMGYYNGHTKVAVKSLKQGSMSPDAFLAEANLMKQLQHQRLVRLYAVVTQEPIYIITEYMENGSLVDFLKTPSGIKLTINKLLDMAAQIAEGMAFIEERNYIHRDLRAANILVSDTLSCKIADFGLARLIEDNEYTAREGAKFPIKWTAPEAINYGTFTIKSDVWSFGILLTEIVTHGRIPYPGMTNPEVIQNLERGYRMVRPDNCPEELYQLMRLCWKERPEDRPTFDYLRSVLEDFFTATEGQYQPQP

Cc1nc(NCCCCCCC(=O)NO)cc(Nc2ncc(C(=O)Nc3c(C)cccc3Cl)s2)n1 [Compound 24] | < 100 nM

Switching to the query record.
[in] Tell me reported IC50 for Cc1nc(NCCNCCCCCC(=O)NO)cc(Nc2ncc(C(=O)Nc3c(C)cccc3Cl)s2)n1 [Compound 11] , tested with UniProtKB P06239.
[out] < 100 nM
